Reported values of pIC50 for individual entries
- system: T1, human IL-23 (human, UniProt P29460 23-328; Q9NPF7 20-189)
- T1 construct: Secreted from Sf9 cells for the crystal structure; One molecule is used for all three; also called Interleukin-23
- T1 sequence (looked up) 1: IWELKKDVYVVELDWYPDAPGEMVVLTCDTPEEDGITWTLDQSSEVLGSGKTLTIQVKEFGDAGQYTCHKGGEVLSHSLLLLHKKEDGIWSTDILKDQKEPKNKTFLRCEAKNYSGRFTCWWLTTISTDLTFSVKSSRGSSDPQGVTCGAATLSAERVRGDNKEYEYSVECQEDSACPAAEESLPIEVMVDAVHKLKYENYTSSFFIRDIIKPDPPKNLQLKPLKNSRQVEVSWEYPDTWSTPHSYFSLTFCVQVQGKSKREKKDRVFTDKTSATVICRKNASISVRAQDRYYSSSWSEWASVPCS
- T1 sequence (looked up) 2: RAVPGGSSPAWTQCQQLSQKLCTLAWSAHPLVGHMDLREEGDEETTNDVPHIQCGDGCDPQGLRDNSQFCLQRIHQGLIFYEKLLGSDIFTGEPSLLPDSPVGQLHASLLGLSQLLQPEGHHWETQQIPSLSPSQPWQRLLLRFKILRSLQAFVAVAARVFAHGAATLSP
- test: competition ELISA: Adnectin + 1 nM IL-23 on coated IL-23R-Fc
pIC50: −log10 of the molar value.
propertyName: pIC50

Adnectin 2 Y73→Q (designed binder) MGVSDVPRDLEVVAATPTSLLISWEHDYPYRRYYRITYGETGGNSPVQEFTVPKDVDTATISGLKPGVDYTITVQAVTSSYKYDMQYSPISINYRTEIDKPSQHHHHHH :: 9.59
Adnectin 2 V45→Q (designed binder) MGVSDVPRDLEVVAATPTSLLISWEHDYPYRRYYRITYGETGGNSPQQEFTVPKDVDTATISGLKPGVDYTITVYAVTSSYKYDMQYSPISINYRTEIDKPSQHHHHHH :: 9.47
Adnectin 2 T35→Q (designed binder) MGVSDVPRDLEVVAATPTSLLISWEHDYPYRRYYRIQYGETGGNSPVQEFTVPKDVDTATISGLKPGVDYTITVYAVTSSYKYDMQYSPISINYRTEIDKPSQHHHHHH :: 9.00
Adnectin 2 Y81→A (designed binder) MGVSDVPRDLEVVAATPTSLLISWEHDYPYRRYYRITYGETGGNSPVQEFTVPKDVDTATISGLKPGVDYTITVYAVTSSYKADMQYSPISINYRTEIDKPSQHHHHHH :: 7.46
